target: serotonin transporter (Rattus norvegicus); construct: frontal cortical membranes prepared from male Sprague-Dawley rats; from tissue; host or cells: rat frontal cortex membranes; test: serotonin transporter affinity, 3H-paroxetine binding, frontal cortical membranes; settings: 3H-paroxetine 0.1 nM; read-out: ST (Ki, nM,)
Sequence (P31652 whole entry): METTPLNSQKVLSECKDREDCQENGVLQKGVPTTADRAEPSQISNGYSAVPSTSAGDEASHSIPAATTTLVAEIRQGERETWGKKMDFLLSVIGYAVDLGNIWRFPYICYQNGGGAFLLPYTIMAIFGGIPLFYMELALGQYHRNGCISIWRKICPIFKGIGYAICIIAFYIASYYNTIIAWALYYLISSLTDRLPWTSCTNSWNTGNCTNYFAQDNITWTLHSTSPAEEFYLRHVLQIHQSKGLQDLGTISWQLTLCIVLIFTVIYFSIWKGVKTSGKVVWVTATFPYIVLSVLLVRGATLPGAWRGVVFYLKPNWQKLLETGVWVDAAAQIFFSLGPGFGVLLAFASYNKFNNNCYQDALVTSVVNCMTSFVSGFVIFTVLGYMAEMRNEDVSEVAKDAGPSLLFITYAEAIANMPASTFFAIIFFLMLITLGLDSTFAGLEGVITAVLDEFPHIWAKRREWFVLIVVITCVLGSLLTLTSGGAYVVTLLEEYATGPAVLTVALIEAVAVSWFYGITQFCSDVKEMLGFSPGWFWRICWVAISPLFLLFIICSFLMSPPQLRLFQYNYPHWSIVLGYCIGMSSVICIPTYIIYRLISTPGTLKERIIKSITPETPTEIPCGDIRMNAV
Parameter class (string): assigned from measured Ki. Ranges: Low = under 2 nM, Medium = from 2 nM up to 20 nM, High = 20 nM and over

Recorded results for 5 compounds are shown here.
- N#Cc1ccc2[nH]cc([C@H]3CC[C@@H](N4CCN(c5cccc6cccnc56)CC4)CC3)c2c1 [Example 29a]: Medium
- Cn1ccc2c(N3CCN([C@H]4CC[C@@H](c5cn(C)c6ccc(C#N)cc65)CC4)CC3)cccc21: Medium
- N#Cc1ccc2[nH]cc([C@H]3CC[C@H](N4CCN(c5cc(F)cc6c5OCC6)CC4)CC3)c2c1 [Example 33b]: High
- N#Cc1ccc2[nH]cc([C@H]3CC[C@H](N4CCN(c5cccc6c5OCCO6)CC4)CC3)c2c1 [Example 26b]: High
- N#Cc1ccc2[nH]cc([C@H]3CC[C@H](N4CCN(c5cccc6ccoc56)CC4)CC3)c2c1 [Example 34b]: Medium

Next:
Please report the category associated with COc1cc(N2CCN([C@H]3CC[C@@H](c4c[nH]c5ccc(C#N)cc54)CC3)CC2)c2ncccc2c1 [Example 44c] , nothing else.
Low
